tested on: Escherichia coli TOP10; assay: shrunken log2 fold change of peptide-encoding DNA abundance (4.5 h post-induction vs induction); higher = less antimicrobial activity (less host growth inhibition); details: time post-induction: 4.5 h; library: site-saturation at positions 5, 18, 19, 20;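 note: peptides expressed intracellularly from a pBAD plasmid library in pooled LB shake-flask culture, induced with 0.3% L-arabinose, DNA abundance read by NGS, three biological replicates, DESeq2 with apeglm shrinkage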
ENDPOINT NAME: shrunken log2 fold change
Give your answer as a number; write no unit.

>>> experimental_result("RRIRLRPPRLPRPRPRPFACPRP")
0.119
>>> experimental_result("RRIRYRPPRLPRPRPRPDHQPRP")
-0.167
>>> experimental_result("RRIRFRPPRLPRPRPRPTCDPRP")
-0.0372
>>> experimental_result("RRIRSRPPRLPRPRPRPNQIPRP")
0.0721
>>> experimental_result("RRIRKRPPRLPRPRPRPACLPRP")
0.222
>>> experimental_result("RRIRERPPRLPRPRPRPGGIPRP")
0.0836
>>> experimental_result("RRIRYRPPRLPRPRPRPMRKPRP")
-0.00197
>>> experimental_result("RRIRLRPPRLPRPRPRPTFEPRP")
-0.336

So, "RRIRTRPPRLPRPRPRPTQGPRP" ? Its shrunken log2 fold change was 0.358

Field shrunken log2 fold change (entry "RRIRMRPPRLPRPRPRPMAHPRP" ) reads -0.0858

Lookup result for "RRIRRRPPRLPRPRPRPFTCPRP" ; measured shrunken log2 fold change: -0.0792

Input "RRIRMRPPRLPRPRPRPIYNPRP" . Output shrunken log2 fold change: -0.347

Reference source for all entries: the supplement of paper PMC9112550
